- Test system: Caco-2
- TEST_DESCRIPTION: relative viability EC50 (midpoint between 100% and the lowest measured viability); higher = less toxic
- SETTINGS: 72 h
ENDPOINT_LABEL: relative viability EC50

Field: example entries. Status: answers known.
Report relative viability EC50 from Caco-2 testing of CN1CCN(c2c(F)cc3c(=O)c(C(=O)O)cn(CCF)c3c2F)CC1 > 10 µM

Report relative viability EC50 from Caco-2 testing of CCC(NC(C)C)C(O)c1ccc(O)c(O)c1 (centres undefined) > 10 µM

Report relative viability EC50 from Caco-2 testing of CN[C@H](C(=O)N[C@H](C(=O)N(C)[C@H](/C=C(\C)C(=O)O)C(C)C)C(C)(C)C)C(C)(C)c1ccccc1 0.0011 µM

Report relative viability EC50 from Caco-2 testing of C/C(=C\C(=O)OCCCCCCCCC(=O)O)C[C@@H]1OC[C@H](C[C@@H]2O[C@H]2[C@@H](C)[C@H](C)O)[C@@H](O)[C@H]1O > 10 µM

Report relative viability EC50 from Caco-2 testing of O=C1NC(=O)/C(=C/c2ccc3nccc(-c4ccncc4)c3c2)S1 2.6 µM

Further cases:
Report relative viability EC50 from Caco-2 testing of Cc1ccc(C(=O)Cn2c3c(sc2=N)CCCC3)cc1 > 10 µM

Sourced from the supplement of paper PMC13380429
